test-target: human recombinant HDAC1 (Homo sapiens, UniProt Q13547)
Sequence (Q13547 whole entry): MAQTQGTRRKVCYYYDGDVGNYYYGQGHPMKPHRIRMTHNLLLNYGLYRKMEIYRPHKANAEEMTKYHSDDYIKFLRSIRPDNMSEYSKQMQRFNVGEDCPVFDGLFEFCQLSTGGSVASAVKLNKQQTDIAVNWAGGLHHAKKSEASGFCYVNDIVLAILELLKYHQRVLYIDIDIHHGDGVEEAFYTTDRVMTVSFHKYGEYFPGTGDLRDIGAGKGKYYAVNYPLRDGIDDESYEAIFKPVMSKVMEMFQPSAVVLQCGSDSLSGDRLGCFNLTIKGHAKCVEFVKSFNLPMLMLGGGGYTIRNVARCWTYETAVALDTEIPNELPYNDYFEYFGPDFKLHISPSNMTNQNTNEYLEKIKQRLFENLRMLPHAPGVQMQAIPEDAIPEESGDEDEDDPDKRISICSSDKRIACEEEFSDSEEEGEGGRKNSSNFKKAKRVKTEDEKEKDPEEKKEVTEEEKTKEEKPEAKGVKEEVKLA
test: In vitro HDAC enzyme activity inhibition assay, HDAC1 (HDAC Fluorimetric Drug Discovery Kit)
condition: human recombinant HDAC1, Fluor de Lys-SIRT1 substrate 10 μM, 30° C. for 60 minutes
pIC50: −log10 of the molar value.
Property: pIC50; scope: individual compounds

Consider the worked cases shown below.
structure-string | test-target | value-type | experimental-result
O=C(C1CCC1)N1CCC(C(=O)N(Cc2cn3ccc(-c4nnc(C(F)F)o4)cc3n2)c2ccccc2)CC1 | human recombinant HDAC1 (Homo sapiens, UniProt Q13547) | pIC50 | < 4.30
CS(=O)(=O)N1CCN(C(=O)N(Cc2cn3ccc(-c4nnc(C(F)F)o4)cc3n2)c2cccc(F)c2)CC1 | human recombinant HDAC1 (Homo sapiens, UniProt Q13547) | pIC50 | < 4.30
COC(=O)N1CCN(C(=O)N(Cc2cn3ccc(-c4nnc(C(F)F)o4)cc3n2)c2cccc(F)c2)CC1 | human recombinant HDAC1 (Homo sapiens, UniProt Q13547) | pIC50 | < 4.30
CC(C)(C)OC(=O)N1CCN(C(=O)N(Cc2cn3ccc(-c4nnc(C(F)(F)F)o4)cc3n2)c2cccc(F)c2)CC1 | human recombinant HDAC1 (Homo sapiens, UniProt Q13547) | pIC50 | < 4.30
Fc1ccc(Cc2cn3ccc(-c4nnc(C(F)F)o4)cc3n2)cc1F | human recombinant HDAC1 (Homo sapiens, UniProt Q13547) | pIC50 | < 4.30

-- ask Using known records, supply pIC50 for O=C(C1CN(C(=O)C(F)(F)F)C1)N(Cc1cn2ccc(-c3nnc(C(F)F)o3)cc2n1)c1ccccc1
-- reply < 4.30

-- ask Using known records, supply pIC50 for CCC(=O)N1CC(C(=O)N(Cc2cn3ccc(-c4nnc(C(F)F)o4)cc3n2)c2ccccc2)C1
-- reply < 4.30

-- ask Using known records, supply pIC50 for O=C(CO)N1CCC(C(=O)N(Cc2cn3ccc(-c4nnc(C(F)F)o4)cc3n2)c2cccc(F)c2)CC1
-- reply < 4.30

-- ask Using known records, supply pIC50 for Cc1cccc(OCc2cn3ccc(-c4nnc(C(F)F)o4)cc3n2)c1
-- reply < 4.30

-- ask Using known records, supply pIC50 for O=C(N1CCN(C2CCOCC2)CC1)N(Cc1cn2ccc(-c3nnc(C(F)F)o3)cc2n1)c1cccc(F)c1
-- reply < 4.30

-- ask Using known records, supply pIC50 for O=C(C1CCC1)N1CCN(C(=O)N(Cc2cn3ccc(-c4nnc(C(F)F)o4)cc3n2)c2ccccc2)CC1
-- reply < 4.30

-- ask Using known records, supply pIC50 for O=C(CO)N1CC(C(=O)N(Cc2cn3ccc(-c4nnc(C(F)F)o4)cc3n2)c2ccccc2)C1
-- reply < 4.30

-- ask Using known records, supply pIC50 for O=C(C1CCN(c2ncccn2)CC1)N(Cc1cn2ccc(-c3nnc(C(F)F)o3)cc2n1)c1ccccc1
-- reply < 4.30

-- ask Using known records, supply pIC50 for CN1CC(C(=O)N(Cc2cn3ccc(-c4nnc(C(F)F)o4)cc3n2)c2ccccc2)C1
-- reply < 4.30

-- ask Using known records, supply pIC50 for CS(=O)(=O)c1ccc(Cc2cn3ccc(-c4nnc(C(F)F)o4)cc3n2)cc1
-- reply < 4.30
